- TEST_DETAILS: physchem
- MEASUREMENT_PARAMETERS: aqueous with cosolvent or surfactant or cyclodextrin, thermodynamic from solid, Solubility in KOH 2 mol · L^−1 and ionic liquid: Anthraquinone
READOUT: solubility

> print(dat)
          structure.as.smiles    result
1  O=C1c2ccccc2C(=O)c2ccccc21  < 100 mM

----------
- TEST_DETAILS: Maximum solubility / solubilisation of organic compounds in ionic liquid/basic aqueous solution mixtures (flask method)
- MEASUREMENT_PARAMETERS: aqueous KOH solution with ionic liquid, aqueous with cosolvent or surfactant or cyclodextrin, thermodynamic from solid, Solubility in KOH 2 mol · L^−1 and ionic liquid: Anthraquinone, KOH 2 mol·L^−1; ionic liquid (I-a), (I-b) or (I-c) 0.5 mol·L^−1
READOUT: solubility

> print(dat)
                      structure.as.smiles  result
1             Nc1cccc2c1C(=O)c1ccccc1C2=O  100 mM
2  O=C1c2ccccc2C(=O)c2cc(S(=O)(=O)O)ccc21  100 mM
3          O=C1c2ccccc2C(=O)c2c1ccc(O)c2O  500 mM
4        O=C1c2cccc(O)c2C(=O)c2cccc(O)c21  500 mM

----------
- TEST_DETAILS: Maximum solubility / solubilisation of organic compounds in ionic liquid/basic aqueous solution mixtures (flask method)
- MEASUREMENT_PARAMETERS: aqueous KOH solution with ionic liquid, aqueous with cosolvent or surfactant or cyclodextrin, thermodynamic from solid, Solubility in KOH 2 mol · L^−1 and ionic liquid: Anthraquinone, KOH 2 mol·L^−1; ionic liquid (I-a), (I-b) or (I-c) 0.6 mol·L^−1
READOUT: solubility

> print(dat)
                        structure.as.smiles  result
1  O=C1c2ccccc2C(=O)c2c1cc(S(=O)(=O)[O-])c(O)c2O.[Na+]  600 mM

----------
- TEST_DETAILS: Maximum solubility / solubilisation of organic compounds in ionic liquid/basic aqueous solution mixtures (flask method)
- MEASUREMENT_PARAMETERS: aqueous KOH solution without ionic liquid, aqueous buffer, thermodynamic from solid, Solubility in KOH 2 mol · L^−1, aqueous KOH 2 mol·L^−1, without ionic liquid
READOUT: solubility (mM)

> print(dat)
                                   compound  unit.symbol  relation.qualifier  result
1  O=C1c2ccccc2C(=O)c2c1cc(S(=O)(=O)[O-])c(O)c2O.[Na+] [Alizarin redS, Alizarin Red S]           mM                   =     200
2  O=C1c2ccccc2C(=O)c2c1ccc(O)c2O [alizarin, Alizarin]           mM                   =     100
3          O=C1c2cccc(O)c2C(=O)c2cccc(O)c21           mM                   =     100
4               Nc1cccc2c1C(=O)c1ccccc1C2=O           mM                   <     100
5    O=C1c2ccccc2C(=O)c2cc(S(=O)(=O)O)ccc21           mM                   <     100

----------
- TEST_DETAILS: Maximum solubility / solubilisation of organic compounds in ionic liquid/basic aqueous solution mixtures (flask method)
- MEASUREMENT_PARAMETERS: aqueous KOH solution without ionic liquid, aqueous buffer, thermodynamic from solid, soluble concentration in aqueous solution of KOH 2 M, KOH 2 M, without ionic liquid (saturation)
READOUT: solubility (mM)

> print(dat)
                                   compound  unit.symbol  result
1  O=C1c2ccccc2C(=O)c2c1ccc(O)c2O [alizarin, Alizarin]           mM     100
